// data source = PubChem BioAssay (NCI)

Assay: NCI Yeast Anticancer Drug Screen. Data for the sgs1 mgt1 strain (AID 161)
Conditions: S. cerevisiae sgs1 mgt1 strain, at 5.0 µM (retest, dose inferred, filed as 0.5)
This is part of a sample that, as a whole, favours compounds with a hit. Of some 79,000 tested, about 15% had one in any assay. The source made the active and inactive calls. Rule as the data show it: active = growth inhibition above about 70%; inactive = the rest.
Possible outcomes: active, inactive

{"molecule": "CC1(C)C(=O)C=CC2(C)C1CC(O)C1(C)C2CCC2(C)C(c3ccoc3)OC(=O)C3OC321 (stereo not given)", "assigned_label": "inactive"}
{"molecule": "CC1C2C=CC1C(c1c3ccc(=O)c(O)c-3oc3c(O)c(O)ccc13)C2C(=O)O (stereo not given)", "assigned_label": "inactive"}
{"molecule": "NC(C(=O)O)c1ccccc1Cl (stereo not given)", "assigned_label": "inactive"}
{"molecule": "CC(=O)OC1C(O)C(C)OC(OC2C(OC(=O)C3CCC4C(C3)OC3(CC(OC(=O)/C=C/c5ccccc5)C(C)CO3)C43CO3)OC(C)C(O)C2OC(C)=O)C1O (stereo not given)", "assigned_label": "inactive"}
{"molecule": "O=C(Nc1ccccc1)OC(C[N+](=O)[O-])C(Cl)(Cl)Cl (stereo not given)", "assigned_label": "inactive"}
{"molecule": "CCOC(=O)N(C(=O)c1ccc([As]=O)cc1)C(=O)c1ccc([As]=O)cc1 (stereo not given)", "assigned_label": "inactive"}
{"molecule": "C[CH2][Sn]1([CH2]C)[O]C2C(O)OC(CO)C(O)C2[O]1 (stereo not given)", "assigned_label": "inactive"}
{"molecule": "c1ccc2c3ccn4cc5c(cc4c-3nc2c1)CCCC5", "assigned_label": "inactive"}
{"molecule": "CN(/N=C/c1ccc(Cl)cc1)P(=O)(N1CC1)N1CC1", "assigned_label": "inactive"}
{"molecule": "CCCCCCC1CC2(Cl)C(Cl)=C(Cl)C1(Cl)C2(Cl)Cl (stereo not given)", "assigned_label": "inactive"}
{"molecule": "CCN(CC)C1CC(O[C@H]2C[C@](O)(C(=O)CO)Cc3c(O)c4c(c(O)c32)C(=O)c2c(OC)cccc2C4=O)OC(C)C1O (stereo not given in full)", "assigned_label": "active"}
{"molecule": "c1ccc([Te][Te]c2ccccc2)cc1", "assigned_label": "inactive"}
{"molecule": "CN1CSC(=S)N(C)C1", "assigned_label": "inactive"}
{"molecule": "O=C1C(=O)c2cccc3cccc1c23", "assigned_label": "inactive"}
{"molecule": "COC1C(O)C(C)OC(OC2C(Oc3cccc4c(O)c5c(=O)oc6ccc(C)c7c(=O)oc(c34)c5c67)OC(C)C(O)C2O)C1O (stereo not given)", "assigned_label": "inactive"}
{"molecule": "O=C1C(Br)=CC2(C=C1Br)CCNc1c(O)c3c4c(c12)=NCCC=4C=N3", "assigned_label": "inactive"}
{"molecule": "CC(C)c1cccc(C(C)C)c1NC(=O)C(=O)CC(=O)CC(c1ccccc1)c1c(O)c2ccccc2oc1=O (stereo not given)", "assigned_label": "inactive"}
{"molecule": "Fc1cccc(C2N(Cc3ccc(N(CCCl)CCCl)cc3Cl)CCCN2Cc2ccc(N(CCCl)CCCl)cc2Cl)c1", "assigned_label": "inactive"}
{"molecule": "S=P(Nc1ccccc1)(Nc1ccccc1)Oc1ccccc1", "assigned_label": "inactive"}
{"molecule": "c1ccc2cc3n[se]nc3cc2c1", "assigned_label": "inactive"}
{"molecule": "CN(C)C(=[Se])[Se]C(=[Se])N(C)C", "assigned_label": "active"}
{"molecule": "c1ccc(NC2=NCCN2)nc1", "assigned_label": "inactive"}
{"molecule": "ClCCN(CCCl)CCN1c2ccccc2Sc2ccc(Cl)cc21", "assigned_label": "inactive"}
{"molecule": "Cc1ccccc1NC(=O)CBr", "assigned_label": "inactive"}
{"molecule": "Oc1cc(Cl)c(Cl)cc1Cl", "assigned_label": "inactive"}
{"molecule": "CN(N=O)C(=O)NNC(=O)N(C)N=O", "assigned_label": "active"}
{"molecule": "COc1c(Br)cc(/C=C(/C)[N+](=O)[O-])cc1Br", "assigned_label": "inactive"}
{"molecule": "Oc1ccc2nc3ccccc3nc2c1", "assigned_label": "inactive"}
{"molecule": "O=[N+]([O-])c1cc([N+](=O)[O-])c(Cl)cc1F", "assigned_label": "active"}
{"molecule": "C=CC[N+]12CN3CN(CN(C3)C1)C2", "assigned_label": "inactive"}
{"molecule": "CC1(C)CCC(C)(C)c2cc(Cl)c(O)cc21", "assigned_label": "inactive"}
{"molecule": "O=C(O)c1cc[c]([Hg])cc1", "assigned_label": "inactive"}
{"molecule": "O=c1oc2ccccc2c(O)c1C(c1ccc(/C=C/c2ccccc2)cc1)c1c(O)c2ccccc2oc1=O", "assigned_label": "inactive"}
{"molecule": "CN1CN(c2ccccc2)C2(CCN(C3Nc4ccccc4O3)CC2)C1=O (stereo not given)", "assigned_label": "inactive"}
{"molecule": "CCOP(=O)(Cc1cccc2ccccc12)OCC", "assigned_label": "inactive"}
